assay: Pharmacokinetic test in mice; format: in vivo; settings: mouse, po; male C57 mice, i.g. 10 mg/kg, plasma
measurementType: AUC(0-t) (ng·h/mL)
Answer with a number only, understood to be in ng·h/mL.

Tell me its AUC(0-t) given O=C(NCc1ccc2cc(CNCC34CC(F)(C3)C4)[nH]c2c1)c1cc(=O)n2ccccc2n1 [Compound 23 in WO 2021111124] as the entry.
923

###

assay: Pharmacokinetic test in mice; type: in vivo; conditions: mouse, iv; male C57 mice, i.v. 2.5 mg/kg, plasma
measurementType: AUC(0-t)

Tell me its AUC(0-t) given O=C(NCc1ccc2cc(CNCC34CC(F)(C3)C4)[nH]c2c1)c1cc(=O)n2ccccc2n1 [Compound 23 in WO 2021111124] as the entry.
730 ng·h/mL
